Reference source for all entries: patent US12268227B2

Experiment: log P (n-octanol/water partition coefficient) of aroma substances
Assay type: physicochemical
Conditions: read-out: logP
test readout: logP
Numbers only.

Examples with answers:
In [3]: df
Out[3]:
                                   compound  value_measured
0  C=CC(C)(O)CCC=C(C)C (stereo not shown) [linalool]            2.74
1             CCCC(=O)OCC [ethyl butanoate]            1.49
2            CC(=O)C(C)=O [2,3-butanedione]          -0.508
3                        CCCCCC=O [hexanal]            1.85
4                          CCC=O [propanal]           0.484

I'm hoping you can list logP for every compound here, please.
1. CCCCCC(=O)OCC [ethyl hexanoate]
2. CCCCCC(=O)O [hexanoic acid]
3. CC/C=C\CCO [cis-3-hexenol]
4. CCC(C)C=O (stereo not shown) [2-methylbutyraldehyde]

**A:**
1: 2.41; 2: 1.81; 3: 1.44; 4: 1.4

I'm hoping you can list logP for every compound here, please.
1. CO [methanol]
2. CCC(=O)C(C)=O [2,3-pentanedione]
3. CC(C)=CCC/C(C)=C/C=O [geranial]
4. CC=O [acetaldehyde]

**A:**
-0.358
0.159
3.19
-0.182
